# Experiment Description: Hepatic first-pass effect / hepatic clearance rate (jugular vs pyloric vein AUC0-t) in inflamed rats
# Assay type: in vivo, Sprague-Dawley rats
# Test Context: inflamed rats (G5, n = 5), oral HLJDD; HCR% = 100×(AUC0−t pyloric vein − AUC0−t jugular vein)/AUC0−t pyloric vein

| Compound | hepatic clearance rate (HCR) |
| --- | --- |
| COc1cc(O[C@@H]2O[C@H](C(=O)O)[C@@H](O)[C@H](O)[C@H]2O)c2c(=O)cc(-c3ccccc3)oc2c1O[C@@H]1O[C@H](C(=O)O)[C@@H](O)[C@H](O)[C@H]1O [F4] | approximately zero |
| COc1cc(O)c2c(=O)cc(-c3ccccc3)oc2c1O[C@@H]1O[C@H](C(=O)O)[C@@H](O)[C@H](O)[C@H]1O [F7] | approximately zero |
| COC(=O)C1=CO[C@@H](O[C@@H]2O[C@H](CO)[C@@H](O)[C@H](O)[C@H]2O)[C@@H]2C(CO)=C[C@@H](O)[C@H]12 [I2, scandoside methyl ester] | approximately zero |
